Data provenance is patent US12503463B2.

target: human 5-HT7 receptor (Homo sapiens); experiment: Test 2: antagonist activity for human 5-HT7 receptor (aequorin luminescence, CHO-K1 cells); details: Gα16
attributeMeasured: pIC50
// returns pIC50 (minus log10 of molar concentration), number only

Give pIC50 for CCN(CCN1CCC(c2noc3cc(F)ccc23)CC1)C(=O)C(O)CNC(C)=O (stereo not shown) [Example 71]
7.11

* * *

molecular target: human 5-HT7 receptor (Homo sapiens, UniProt P34969)
Sequence (P34969 whole entry): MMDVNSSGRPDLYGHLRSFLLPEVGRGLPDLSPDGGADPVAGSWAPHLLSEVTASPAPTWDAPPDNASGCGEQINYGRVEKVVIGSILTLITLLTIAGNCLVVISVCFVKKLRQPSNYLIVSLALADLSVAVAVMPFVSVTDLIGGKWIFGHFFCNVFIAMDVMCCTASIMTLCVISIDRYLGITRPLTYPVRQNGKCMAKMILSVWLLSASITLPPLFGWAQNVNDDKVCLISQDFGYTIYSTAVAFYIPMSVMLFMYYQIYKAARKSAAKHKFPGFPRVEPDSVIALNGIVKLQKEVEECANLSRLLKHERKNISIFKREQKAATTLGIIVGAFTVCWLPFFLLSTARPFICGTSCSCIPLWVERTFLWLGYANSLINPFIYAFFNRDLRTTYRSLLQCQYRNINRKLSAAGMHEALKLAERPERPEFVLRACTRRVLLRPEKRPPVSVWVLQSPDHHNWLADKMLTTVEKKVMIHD
attributeMeasured: Ki (nM)
Form entry: value (nM) — number only.

Please look at CCN(CCN1CCC(c2noc3cc(F)ccc23)CC1)C(=O)C(O)CNC(C)=O (stereo not shown) [Example 71] and tell me its recorded Ki on human 5-HT7 receptor (Homo sapiens, UniProt P34969).
6.2

* * *

molecular target: human D2 receptor (Homo sapiens); assay: Test 1: binding activity for human D2 receptor ([3H]Spiperone, CHO cell membrane fraction); details: human D2 receptor, [3H]Spiperone
Sequence (P14416 whole entry): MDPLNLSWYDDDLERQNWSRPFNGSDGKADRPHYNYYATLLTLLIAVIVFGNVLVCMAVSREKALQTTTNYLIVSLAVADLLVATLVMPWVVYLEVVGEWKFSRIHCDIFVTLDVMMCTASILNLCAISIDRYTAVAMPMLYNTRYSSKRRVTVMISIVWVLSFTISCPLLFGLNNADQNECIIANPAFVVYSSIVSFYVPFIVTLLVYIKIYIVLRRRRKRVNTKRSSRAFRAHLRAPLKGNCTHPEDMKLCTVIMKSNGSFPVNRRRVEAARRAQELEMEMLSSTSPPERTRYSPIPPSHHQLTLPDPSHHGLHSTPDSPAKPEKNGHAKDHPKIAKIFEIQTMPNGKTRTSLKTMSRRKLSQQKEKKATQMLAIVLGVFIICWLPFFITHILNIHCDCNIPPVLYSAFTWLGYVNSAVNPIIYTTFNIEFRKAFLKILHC
attributeMeasured: pKi
// returns pKi (minus log10 of molar concentration), number only

Give pKi for CCN(CCN1CCC(c2noc3cc(F)ccc23)CC1)C(=O)C(O)CNC(C)=O (stereo not shown) [Example 71]
6.65

* * *

Recorded Metabolic stability in human hepatic microsome by entry
experiment: Test 3-1: metabolic stability test in human hepatic microsome; type: in vitro ADME; details: Test 3-1: microsome 0.1 mg/mL, test compound 0.1 μmol/L, 37° C., 30 minutes

The cases that follow already have their Metabolic stability in human hepatic microsome on record.
Give Metabolic stability in human hepatic microsome for CCN(CCN1CCC(c2n[nH]c3cc(F)ccc23)CC1)C(=O)C(C)O (stereo not drawn) [Example 19]
<0.05 mL/min/mg protein

Give Metabolic stability in human hepatic microsome for CCN(CCN1CCC(c2noc3cc(F)c(C)cc23)CC1)C(=O)[C@H](C)O [Example 13]
0.054 mL/min/mg protein

Shifting focus to the molecule that follows.
Give Metabolic stability in human hepatic microsome for CCN(CCN1CCC(c2noc3ccccc23)CC1)C(=O)C(C)O (stereo not drawn) [Example 25]
<0.05 mL/min/mg protein

* * *

assay: Test 3-1: metabolic stability test in human hepatic microsome; type: in vitro ADME; details: Test 3-1: microsome 0.1 mg/mL, test compound 0.1 μmol/L, 37° C., 30 minutes
attributeMeasured: Metabolic stability in human hepatic microsome (mL/min/mg protein)
Form entry: value (mL/min/mg protein) — number only.

Give Metabolic stability in human hepatic microsome for CCN(CCN1CCC(c2noc3ccc(C)cc23)CC1)S(=O)(=O)CCO
0.079

Others:
Give Metabolic stability in human hepatic microsome for CCN(CCN1CCC(c2noc3cc(F)ccc23)CC1)C(=O)C(C)(C)O
0.053

Give Metabolic stability in human hepatic microsome for CCN(CCCN1CCN(c2noc3cc(F)ccc23)CC1)S(=O)(=O)C(C)CO (stereo not drawn)
0.059

Give Metabolic stability in human hepatic microsome for CCN(CCN1CCC(c2noc3cc(F)ccc23)CC1)C(=O)C(C)(C)CO
0.08

Give Metabolic stability in human hepatic microsome for CCN(CCN1CCC(n2ncc3cc(F)ccc32)CC1)S(=O)(=O)C(C)CO (stereo not drawn)
0.097

* * *

target: human 5-HT2A receptor (Homo sapiens); experiment: Test 1: binding activity for human 5-HT2A receptor ([3H]Ketanserin, CHO cell membrane fraction)
Sequence (P28223 whole entry): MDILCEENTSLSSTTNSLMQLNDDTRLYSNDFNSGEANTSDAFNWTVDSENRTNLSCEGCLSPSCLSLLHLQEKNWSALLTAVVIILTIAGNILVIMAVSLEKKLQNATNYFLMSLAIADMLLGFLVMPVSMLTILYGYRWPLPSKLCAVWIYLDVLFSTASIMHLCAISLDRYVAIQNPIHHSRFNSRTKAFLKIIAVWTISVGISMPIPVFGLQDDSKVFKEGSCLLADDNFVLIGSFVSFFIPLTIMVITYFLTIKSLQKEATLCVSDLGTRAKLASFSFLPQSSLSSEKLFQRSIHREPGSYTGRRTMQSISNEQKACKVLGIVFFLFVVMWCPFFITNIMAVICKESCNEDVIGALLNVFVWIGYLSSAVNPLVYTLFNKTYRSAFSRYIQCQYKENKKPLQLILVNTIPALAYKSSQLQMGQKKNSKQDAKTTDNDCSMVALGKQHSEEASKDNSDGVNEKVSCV
attributeMeasured: pKi
// returns pKi (minus log10 of molar concentration), number only

Please look at CCN(CCN1CCC(c2noc3cc(F)ccc23)CC1)C(=O)C(O)CNC(C)=O (stereo not shown) and tell me its recorded pKi on human 5-HT2A receptor (Homo sapiens).
8.66
